- EXPERIMENTAL SYSTEM: T1, RADIL, Q96JH8
- T1 sequence (Q96JH8 971-1071, limits assumed, looked up): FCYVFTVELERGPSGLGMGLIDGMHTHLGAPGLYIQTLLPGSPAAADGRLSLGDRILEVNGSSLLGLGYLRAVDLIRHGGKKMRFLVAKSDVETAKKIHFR
- TEST DETAILS: holdup assay
- Parameters: key: below the threshold = too weak to quantify, mostly under pKd 3.1 to 4
- CONDITIONS: plain residues with an end cap or a label only (N-terminal biotin on a linker: ado-ado)
QUANTITY NAME: pKd

Please review the entries below; each comes with its answer.
| BINDER | RESULT |
| --- | --- |
| STYCDYTIEI [FAM71C, Q8NEG0] | 4.58 |
| PDSYHRRDFW [U2AF2, P26368] | below the threshold |
| PSVYSRSQYV [CLDN8, P56748] | 5.17 |
| DSEEELPTRL [GRK6, P43250] | below the threshold |
| KSRPENGTVC [TMEM178B, H3BS89] | below the threshold |
| PKSNSSKEYV [CLDN7, O95471] | 4.07 |

### Prompt Param item = QKASRNESTF [POLR1D, P0DPB6] ; retrieve measured pKd.
### Response below the threshold

### Prompt Fill in the blank: the reported pKd of SGDGKTSVWI [GJC1, P36383] is ____.
### Response 4.13

### Prompt Which pKd is listed for PLATCDETSI [SEMA4F, O95754] ?
### Response below the threshold
